Property: Dmax at 0.5 µM; scope: individual compounds
Target: MycN (Homo sapiens)
Construct: endogenous in cells; host or cells: SK-N-BE(2)
Sequence (P04198 whole entry): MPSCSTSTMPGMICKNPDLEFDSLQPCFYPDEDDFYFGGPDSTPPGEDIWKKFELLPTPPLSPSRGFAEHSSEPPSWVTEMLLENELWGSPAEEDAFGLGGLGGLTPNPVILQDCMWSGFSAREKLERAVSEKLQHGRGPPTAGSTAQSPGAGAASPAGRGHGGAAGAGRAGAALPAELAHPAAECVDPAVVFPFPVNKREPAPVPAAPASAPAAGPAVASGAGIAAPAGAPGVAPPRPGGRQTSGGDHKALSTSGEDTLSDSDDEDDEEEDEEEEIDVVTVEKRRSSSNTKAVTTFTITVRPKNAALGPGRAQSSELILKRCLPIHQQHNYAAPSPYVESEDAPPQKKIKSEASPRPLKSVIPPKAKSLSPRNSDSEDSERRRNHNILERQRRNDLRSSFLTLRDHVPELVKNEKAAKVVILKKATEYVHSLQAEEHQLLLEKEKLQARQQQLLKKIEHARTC
Assay: Degradation of MycN protein in SK-N-BE(2) cells, JESS/Western blot of lysates
Type: cell-based
Settings: SKNBE2, 24 h, read-out: % Degradation of MycN (SKNBE2) 24 h, 0.5 μM

Recorded results for 5 compounds are shown here.
CC(C)NCC12CC(C1)N(c1nccc(Nc3cc(C4CCCC4)[nH]n3)n1)C2 [Compound 78] ... < 20%
COCCNCC12CC(C1)N(c1nccc(Nc3cc(C4CCCC4)[nH]n3)n1)C2 [Compound 67] ... < 20%
O=C1c2ccccc2C(=O)N1CC12CC(CN(c3nccc(Nc4cc(C5CCCC5)[nH]n4)n3)C1)C2 [Compound 127] ... 50 to 79%
NCC1CN(c2nccc(Nc3cc(C4CC4)[nH]n3)n2)CC(F)(F)C1 (stereo not drawn) [Compound 121] ... 50 to 79%
NCC12CC(C1)N(c1nccc(Nc3cc(C4CC4)[nH]n3)n1)C2 [Compound 30] ... < 20%

Attention now shifts to the item below.
Task: Sample N#CC1(CN)CCCN(c2nccc(Nc3cc(C4CC4)[nH]n3)n2)C1 (stereo not drawn) [Compound 119] — what was its Dmax at 0.5 µM?
Result: 50 to 79%

---

Property: Dmax at 3 µM; scope: individual compounds
Biological target: MycC (Homo sapiens, UniProt P01106)
Construct: endogenous in cells; host or cells: L363
Sequence (P01106 whole entry): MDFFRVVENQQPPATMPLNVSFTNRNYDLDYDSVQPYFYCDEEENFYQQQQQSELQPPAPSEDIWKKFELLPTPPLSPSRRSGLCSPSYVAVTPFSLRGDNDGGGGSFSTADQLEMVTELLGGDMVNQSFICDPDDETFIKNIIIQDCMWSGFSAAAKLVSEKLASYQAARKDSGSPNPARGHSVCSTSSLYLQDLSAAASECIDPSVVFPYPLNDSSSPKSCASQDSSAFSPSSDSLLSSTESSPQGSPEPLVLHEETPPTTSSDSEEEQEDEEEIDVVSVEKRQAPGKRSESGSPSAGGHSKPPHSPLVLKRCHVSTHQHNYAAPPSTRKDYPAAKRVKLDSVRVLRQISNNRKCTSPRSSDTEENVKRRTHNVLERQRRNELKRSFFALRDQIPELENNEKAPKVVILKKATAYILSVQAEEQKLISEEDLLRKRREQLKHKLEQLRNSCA
Assay: Degradation of MycC protein in L363 cells, JESS/Western blot of lysates
Type: cell-based
Details: L-363, 24 h, L-363 cells, 24 h, 3 μM; read-out: % Degradation of MycC (L-363) 24 h, 3 μM

NC[C@@H]1CCN(c2nccc(Nc3cc(C4CCCC4)[nH]n3)n2)C1 [Compound 110] ... 80 to 100%
NC[C@H]1CCCN(c2nccc(Nc3cc(C4CC4)[nH]n3)n2)C1 [Compound 29] ... 80 to 100%
CN1CC2(CCN(c3nccc(Nc4cc(C5CCCC5)[nH]n4)n3)CC2)C1 [Compound 86] ... 80 to 100%
CNCC12CCC(C1)N(c1nccc(Nc3cc(C4CC4)[nH]n3)n1)C2 (stereo not drawn) [Compound 45] ... 80 to 100%
NC[C@H]1CCN(c2nccc(Nc3cc(C4CC4)[nH]n3)n2)C1 [Compound 11] ... < 20%

Task: Query the reported Dmax at 3 µM for MycC (Homo sapiens, UniProt P01106); item: CN1CC2(C1)CN(c1nccc(Nc3cc(C4CCCC4)[nH]n3)n1)C2 [Compound 84]
Result: < 20%

Task: Query the reported Dmax at 3 µM for MycC (Homo sapiens, UniProt P01106); item: NCC1CN(c2nccc(Nc3cc(C4CCCC4)[nH]n3)n2)CC(F)(F)C1 (stereo not drawn) [Compound 115]
Result: 80 to 100%

Task: Query the reported Dmax at 3 µM for MycC (Homo sapiens, UniProt P01106); item: CN1CC(C2CCN(c3nccc(Nc4cc(C5CCCC5)[nH]n4)n3)C2)C1 (stereo not drawn) [Compound 27]
Result: < 20%

Task: Query the reported Dmax at 3 µM for MycC (Homo sapiens, UniProt P01106); item: NC[C@@H]1CCCN(c2nccc(Nc3cc(C4CCCC4)[nH]n3)n2)C1 [Compound 109]
Result: 80 to 100%
